target_or_system: T1, GST-human NOGO-A56 (human)
T1 construct: Expressed in E. coli BL21 from pGEX-6P1 and purified on glutathione-sepharose; the GST tag is part of the protein in the assays; also called GST-Nogo-A 5+6; GST Nogo-A 5 + 6
T1 sequence (chain, as listed by the source limits assumed): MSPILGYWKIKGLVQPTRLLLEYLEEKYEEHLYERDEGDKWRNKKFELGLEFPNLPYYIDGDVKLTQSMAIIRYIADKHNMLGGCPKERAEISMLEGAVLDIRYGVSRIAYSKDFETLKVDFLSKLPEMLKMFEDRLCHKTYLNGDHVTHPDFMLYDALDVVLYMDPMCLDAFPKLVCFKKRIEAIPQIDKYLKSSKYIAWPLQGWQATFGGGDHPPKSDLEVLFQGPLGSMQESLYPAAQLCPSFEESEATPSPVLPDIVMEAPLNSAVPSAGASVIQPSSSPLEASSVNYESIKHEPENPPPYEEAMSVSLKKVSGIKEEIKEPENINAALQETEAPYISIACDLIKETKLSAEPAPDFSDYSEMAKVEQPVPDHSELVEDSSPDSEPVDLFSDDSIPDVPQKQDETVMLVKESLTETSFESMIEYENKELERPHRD
experiment_notes: SPR (Biacore), GST-human NOGO-A56 amine-coupled to CM5, antibody flowed over, 25 C
readout_label: kon (M⁻¹ s⁻¹)

binder="H27L16 (antibody, human IgG1, kappa, V domains shown, IgG1 (L235A, G237A) / kappa; CAMPATH-1H signal (1-19) left out; also called H27FL L16FL) VH: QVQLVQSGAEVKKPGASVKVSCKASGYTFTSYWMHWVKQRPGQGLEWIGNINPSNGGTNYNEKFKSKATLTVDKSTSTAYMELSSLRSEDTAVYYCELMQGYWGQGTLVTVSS VL: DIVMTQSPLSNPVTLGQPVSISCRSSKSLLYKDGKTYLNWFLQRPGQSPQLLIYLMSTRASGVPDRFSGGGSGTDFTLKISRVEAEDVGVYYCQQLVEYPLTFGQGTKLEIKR" numeric_value=3.94e+06
binder="HcLc (chimera of 2A10: murine 2A10 VH and VL with human IgG constant regions) (antibody, V domains shown, also called chimeric antibody; chimeric form of the parental antibody) VH: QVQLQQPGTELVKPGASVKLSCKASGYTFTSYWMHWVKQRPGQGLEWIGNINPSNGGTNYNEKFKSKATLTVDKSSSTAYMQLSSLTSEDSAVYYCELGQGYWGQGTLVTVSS VL: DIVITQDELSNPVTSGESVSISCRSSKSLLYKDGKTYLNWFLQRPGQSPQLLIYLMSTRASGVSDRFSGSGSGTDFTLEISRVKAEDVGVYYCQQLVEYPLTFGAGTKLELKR" numeric_value=2.66e+06
